Molecular target: T1, 재조합 인간 TIGIT-His 단백질 (recombinant human TIGIT-His protein) (human) (UniProt Q495A1)
T1 sequence (looked up): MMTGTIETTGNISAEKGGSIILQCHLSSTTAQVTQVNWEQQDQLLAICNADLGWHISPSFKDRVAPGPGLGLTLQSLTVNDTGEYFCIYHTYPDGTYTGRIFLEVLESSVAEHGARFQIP
Assay: SPR, chimeric antibodies; antigen not given
The entries below are paired with their reported 결합력, fold higher than the control Oncomed-313M32 antibody.

Take a look at these entries with their results.
Binder	Measured Value
chimeric-후보항체 clone 62F (antibody, V domains shown, also called chimeric 62F) VH: EVQLQQSGPELVKPGASVKISCKTSGFTFTEYTMHWVKQSHGKSLEWIGGFNPNSGGSSYNQKFKGKATLTVDKSSSTAFMELRSLTSEDSAAYYCARSSYYRFDLDYWGQGTTLTVSS VL: DIVMTQSHKFMSTSVGDRVSITCKASQDVKTAVAWYQQKPGQSPQLLIYSASFRYTGVPDRFTGSGSGADFTFTISSVQAEDLAAYYCQQHYTTPWTFGGGTKLEIK	30 배
chimeric-후보항체 clone 75G (antibody, V domains shown, also called chimeric 75G) VH: EVNLEESGGGLVQPGGSMKLSCVASGVTFSNYWMNWVRQSPEKGLEWVAEIRLKFNDYATHYVESVKGRFTISRDDSESSVYLQMNNLRAEDTGIYYCTMVRRNWYFDVWGAGTTVTVSS VL: QIVLTQSPAIMSASPGEKVTLTCSASSSVSSGYLYWYQKKPGSSPKLWIYSTSDLASGVPARFSGSGSGTFYSLTISNMEAEDAASYFCHQWSSYPYTFGGGTKLEIK	30 배

Turning now to a further record.
response.value for chimeric-후보항체 clone 63F (antibody, V domains shown) VH: EVQLEEFGGGLVQPGGSMKLSCVASGSTFSNYWMNWVRQSPEKGLEWVAEIRLKFNNYATHYVESVIGRFTISRDDSKSSVYLQMNNLRAEDTGIYYCTMVRRNWYFDVWGAGTTVTVSS VL: QIVLTQSPAIMSAFPGEKVTLTCSASSSVSSSYLYWYQQKPRSSPKLWIYSTSNLASGVPARFSGSGSGTSYSLTISSMEAEDAASYFCHQWSSYPYTFGGGTKLEIK (field: 결합력, fold higher than the control Oncomed-313M32 antibody) = 6 배

Values were extracted from patent KR20220082776A.
